Recorded measurements of ID50 (inhibition indices), one per entry
- Test system: phosphodiesterase of cyclic AMP
- assayExplanation: inhibition of the phosphodiesterase of cyclic AMP in vitro
- Type: biochemical
- Set-up: unit not given beside the values
- details: measured in vitro; unit not given
- Excerpt: The compounds of the invention are capable of inhibiting the phosphodiesterase of cyclic AMP (adenosine monophosphate). Table II gives the inhibition indices (ID50), measured in vitro, for some of the compounds of the invention.
Form field (numeric): enter value without unit.

Below are worked cases with known answers.
[[record]]
compound = "O=c1oc2ccccc2c(OCCN2CCCCC2)c1-c1ccccc1 [Example 3]"
valuetype = "ID50 (inhibition indices)"
value = 150

[[record]]
compound = "CC(COc1c(-c2ccccc2)c(=O)oc2ccccc12)CN1CCOCC1 (centres unmarked) [Example 19]"
valuetype = "ID50 (inhibition indices)"
value = 600

[[record]]
compound = "CC(COc1c2c(oc(=O)c1-c1ccccc1)CCCC2)CN1CCOCC1 (centres unmarked) [Example 46]"
valuetype = "ID50 (inhibition indices)"
value = 600

[[record]]
compound = "CN(C)CCCOc1c(-c2ccccc2)c(=O)oc2ccccc12 [Example 4]"
valuetype = "ID50 (inhibition indices)"
value = 150


# next compound below
q: Please supply the value of reported ID50 (inhibition indices) for the item O=c1oc2c(c(OCCCN3CCOCC3)c1-c1ccccc1)CCCC2 [Example 47]
a: 200

* * *

- Test system: citric acid aerosol cough
- assayExplanation: citric acid aerosol test on the guinea pig (anti-tussive)
- Assay type: in vivo
- details: administered in equitoxic dose per os
I would appreciate it if you labelled entries Fulfilled when % inhibition on average of number of coughs is 50% or higher, otherwise Not fulfilled.

Some solved entries appear below for comparison.
[[record]]
compound = "O=c1oc2cccc(O)c2c(OCCN2CCOCC2)c1-c1ccccc1"
labelclass = "Not fulfilled"

[[record]]
compound = "O=c1oc2c(c(OCCN3CCOCC3)c1-c1ccccc1)CCc1ccccc1-2"
labelclass = "Not fulfilled"

[[record]]
compound = "CC(COc1c2c(oc(=O)c1-c1ccccc1)CCCCCC2)CN1CCOCC1 (centres unmarked)"
labelclass = "Fulfilled"


q: Form field: % inhibition on average of number of coughs at least 50%? Entry: COc1ccc2c3c1O[C@H]1[C@@H](O)C=C[C@H]4[C@@H](C2)N(C)CC[C@@]341 [Codeine, reference compound]
a: Fulfilled

q: Evaluate O=c1oc2c(c(OCCN3CCOCC3)c1-c1ccccc1)CCCC2 [drawing 49] : % inhibition on average of number of coughs at minimum 50%?
a: Fulfilled
